# Assay explanation: Stability tests of analytes in rat plasma QC samples
# Type: in vitro ADME
# Assay conditions: rat plasma, nominal conc. 20 nM

Compound	Extracted samples at 8 °C for 18 h, RE / %
CC(C)=CCC[C@](C)(O[C@@H]1O[C@H](CO)[C@@H](O)[C@H](O)[C@H]1O)[C@H]1CC[C@]2(C)[C@@H]1[C@H](O)C[C@@H]1[C@@]3(C)CC[C@H](O)C(C)(C)[C@@H]3[C@@H](O[C@@H]3O[C@H](CO)[C@@H](O)[C@H](O)[C@H]3O[C@@H]3OC[C@@H](O)[C@H](O)[C@H]3O)C[C@]12C [Compound C8, Notoginsenoside R1]	-11.85
CC(C)=CCC[C@](C)(O[C@@H]1O[C@H](CO[C@@H]2O[C@H](CO)[C@@H](O)[C@H](O)[C@H]2O)[C@@H](O)[C@H](O)[C@H]1O)[C@H]1CC[C@]2(C)[C@@H]1[C@H](O)C[C@@H]1[C@@]3(C)CC[C@H](O[C@@H]4O[C@H](CO)[C@@H](O)[C@H](O)[C@H]4O[C@@H]4O[C@H](CO)[C@@H](O)[C@H](O)[C@H]4O)C(C)(C)[C@@H]3CC[C@]12C [Compound D5, Ginsenoside Rb1]	-11.74
CC(C)=CCC[C@](C)(O)[C@H]1CC[C@]2(C)[C@@H]1[C@H](O)C[C@@H]1[C@@]3(C)CC[C@H](O)C(C)(C)[C@@H]3[C@@H](O[C@@H]3O[C@H](CO)[C@@H](O)[C@H](O)[C@H]3O)C[C@]12C [Compound C1, Ginsenoside Rh1]	-12.72
